These entries and their values trace back to patent US6358948B1.

# target.or.system: human PR (Homo sapiens)
# Construct: expressed in transfected cells; host or cells: CV-1 cells (electroporated with pLEM-hPR-B and pGL3-2xPRE-luciferase)
# Sequence (P06401 whole entry): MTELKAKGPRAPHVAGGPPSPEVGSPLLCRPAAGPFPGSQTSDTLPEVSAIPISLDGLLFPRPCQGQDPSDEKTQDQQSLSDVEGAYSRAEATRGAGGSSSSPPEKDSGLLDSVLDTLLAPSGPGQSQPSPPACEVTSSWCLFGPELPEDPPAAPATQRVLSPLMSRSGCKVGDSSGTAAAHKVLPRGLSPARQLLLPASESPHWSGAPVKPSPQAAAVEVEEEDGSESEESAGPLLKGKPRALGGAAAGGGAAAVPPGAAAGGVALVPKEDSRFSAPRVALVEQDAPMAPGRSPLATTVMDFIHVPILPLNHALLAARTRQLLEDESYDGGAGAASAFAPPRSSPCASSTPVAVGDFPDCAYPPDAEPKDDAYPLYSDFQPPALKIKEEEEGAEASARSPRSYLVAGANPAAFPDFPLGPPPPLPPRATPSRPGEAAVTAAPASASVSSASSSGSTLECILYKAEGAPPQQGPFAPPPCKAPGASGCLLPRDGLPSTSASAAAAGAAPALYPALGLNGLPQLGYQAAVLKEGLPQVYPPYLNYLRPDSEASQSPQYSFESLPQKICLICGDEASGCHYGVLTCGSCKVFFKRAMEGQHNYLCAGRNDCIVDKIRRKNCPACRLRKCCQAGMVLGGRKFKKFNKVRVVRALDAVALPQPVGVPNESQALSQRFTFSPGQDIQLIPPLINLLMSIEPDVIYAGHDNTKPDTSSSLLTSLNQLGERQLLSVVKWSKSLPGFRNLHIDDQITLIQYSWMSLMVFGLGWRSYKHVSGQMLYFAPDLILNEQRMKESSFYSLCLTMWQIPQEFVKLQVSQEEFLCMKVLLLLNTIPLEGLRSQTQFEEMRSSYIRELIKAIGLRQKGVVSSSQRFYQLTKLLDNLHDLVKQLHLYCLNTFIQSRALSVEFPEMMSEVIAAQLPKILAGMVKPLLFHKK
# assay.remarks: PRE-luciferase assay in CV-1 cells
# Format: cell-based
# applied.conditions: read-out: hPR CV-1 IC50
measurement.name: pIC50
// pIC50 here means minus log10 of the molar concentration (mol/L)

Query :: Requested field: pIC50. Item: CC1(C)OC(C)(C(F)(F)F)Nc2ccc(-c3cccc(Cl)c3)cc21 (stereo not shown) [Compound 2]
Result :: 7.30
